test: in vivo; conditions: beagle, dog, iv, 0.2 mg
Positions of bridges follow the written chain, without caps; N, C: chain ends. Residues, ends and D or L forms follow the SMILES beside them.
Assay Endpoint: Cmax

Compound	Assay Endpoint	Readout Value
NCCCC[C@H](NC(=O)[C@@H]1CCCN1C(=O)[C@@H]1CSSC[C@H](NC(=O)CNC(=O)CNC(=O)CN)C(=O)N[C@@H](Cc2ccc(O)cc2)C(=O)N[C@@H](Cc2ccccc2)C(=O)N[C@@H](CCC(N)=O)C(=O)N[C@@H](CC(N)=O)C(=O)N1)C(=O)NCC(N)=O [terlipressin, triglycyl lysine vasopressin] (H-GGGCYFQNCPKG-NH2; disulfide 4-9)	Cmax	59.1 ng/mL

---

assay: in vivo; conditions: beagle, dog, iv, 0.04 mg
Positions of bridges follow the written chain, without caps; N, C: chain ends. Residues, ends and D or L forms follow the SMILES beside them.
Assay Endpoint: Tmax (min)

Compound	Readout Value
NCCCC[C@H](NC(=O)[C@@H]1CCCN1C(=O)[C@@H]1CSSC[C@H](NC(=O)CNC(=O)CNC(=O)CN)C(=O)N[C@@H](Cc2ccc(O)cc2)C(=O)N[C@@H](Cc2ccccc2)C(=O)N[C@@H](CCC(N)=O)C(=O)N[C@@H](CC(N)=O)C(=O)N1)C(=O)NCC(N)=O [terlipressin, triglycyl lysine vasopressin] (H-GGGCYFQNCPKG-NH2; disulfide 4-9)	4.98

---

test: in vivo; details: beagle, dog, iv, 0.2 mg
Positions of bridges follow the written chain, without caps; N, C: chain ends. Residues, ends and D or L forms follow the SMILES beside them.
Assay Endpoint: half-life (min)

Molecule	Assay Endpoint	Units Text	Readout Value
NCCCC[C@H](NC(=O)[C@@H]1CCCN1C(=O)[C@@H]1CSSC[C@H](NC(=O)CNC(=O)CNC(=O)CN)C(=O)N[C@@H](Cc2ccc(O)cc2)C(=O)N[C@@H](Cc2ccccc2)C(=O)N[C@@H](CCC(N)=O)C(=O)N[C@@H](CC(N)=O)C(=O)N1)C(=O)NCC(N)=O [terlipressin, triglycyl lysine vasopressin] (H-GGGCYFQNCPKG-NH2; disulfide 4-9)	half-life	min	13.9

---

experiment: in vivo; settings: beagle, dog, iv, 0.2 mg
Positions of bridges follow the written chain, without caps; N, C: chain ends. Residues, ends and D or L forms follow the SMILES beside them.
Assay Endpoint: AUC(0-t) (ng·h/mL)

Compound	Assay Endpoint	Readout Value
NCCCC[C@H](NC(=O)[C@@H]1CCCN1C(=O)[C@@H]1CSSC[C@H](NC(=O)CNC(=O)CNC(=O)CN)C(=O)N[C@@H](Cc2ccc(O)cc2)C(=O)N[C@@H](Cc2ccccc2)C(=O)N[C@@H](CCC(N)=O)C(=O)N[C@@H](CC(N)=O)C(=O)N1)C(=O)NCC(N)=O [terlipressin, triglycyl lysine vasopressin] (H-GGGCYFQNCPKG-NH2; disulfide 4-9)	AUC(0-t)	9.13

---

test: in vivo; conditions: beagle, dog, iv, 0.04 mg
Positions of bridges follow the written chain, without caps; N, C: chain ends. Residues, ends and D or L forms follow the SMILES beside them.
Assay Endpoint: AUC(0-inf) (ng·h/mL)

Compound	Assay Endpoint	Readout Value
NCCCC[C@H](NC(=O)[C@@H]1CCCN1C(=O)[C@@H]1CSSC[C@H](NC(=O)CNC(=O)CNC(=O)CN)C(=O)N[C@@H](Cc2ccc(O)cc2)C(=O)N[C@@H](Cc2ccccc2)C(=O)N[C@@H](CCC(N)=O)C(=O)N[C@@H](CC(N)=O)C(=O)N1)C(=O)NCC(N)=O [terlipressin, triglycyl lysine vasopressin] (H-GGGCYFQNCPKG-NH2; disulfide 4-9)	AUC(0-inf)	1.77

---

assay: in vivo; settings: beagle, dog, iv, 0.04 mg
Positions of bridges follow the written chain, without caps; N, C: chain ends. Residues, ends and D or L forms follow the SMILES beside them.

Compound	AUC(0-t), ng·h/mL
NCCCC[C@H](NC(=O)[C@@H]1CCCN1C(=O)[C@@H]1CSSC[C@H](NC(=O)CNC(=O)CNC(=O)CN)C(=O)N[C@@H](Cc2ccc(O)cc2)C(=O)N[C@@H](Cc2ccccc2)C(=O)N[C@@H](CCC(N)=O)C(=O)N[C@@H](CC(N)=O)C(=O)N1)C(=O)NCC(N)=O [terlipressin, triglycyl lysine vasopressin] (H-GGGCYFQNCPKG-NH2; disulfide 4-9)	1.82

---

assay: in vivo; conditions: beagle, dog, iv, 0.04 mg
Positions of bridges follow the written chain, without caps; N, C: chain ends. Residues, ends and D or L forms follow the SMILES beside them.

Compound	half-life / min
NCCCC[C@H](NC(=O)[C@@H]1CCCN1C(=O)[C@@H]1CSSC[C@H](NC(=O)CNC(=O)CNC(=O)CN)C(=O)N[C@@H](Cc2ccc(O)cc2)C(=O)N[C@@H](Cc2ccccc2)C(=O)N[C@@H](CCC(N)=O)C(=O)N[C@@H](CC(N)=O)C(=O)N1)C(=O)NCC(N)=O [terlipressin, triglycyl lysine vasopressin] (H-GGGCYFQNCPKG-NH2; disulfide 4-9)	4.44
